Test system: MT2
run_description: Antiviral activity against […] RF infected MT-2 cells
Assay type: functional, cell-based
recorded_conditions: Homo sapiens
measured_endpoint: EC50 (nM)
Provide the reading as a plain figure in nM.

Problem: Please give the measured EC50 for this compound: CC(C)(C)NC(=O)[C@@H]1CCCN1C(=O)[C@@H](O)[C@@H]1Cc2ccc(cc2)OCCCOc2cc3ccccc3cc2C(=O)N[C@@H](CC(N)=O)C(=O)N1
Solution: 76

* * *

Catalogue of pIC50 readings, one per entry.
assayed_target: Human immunodeficiency virus type 1 protease (Human immunodeficiency virus 1, UniProt Q72874)
Please express pIC50 as -log10 of the molar concentration.

CC(C)(C)NC(=O)[C@@H]1CCCN1C(=O)[C@H](O)[C@@H]1Cc2ccc(cc2)OCCCOc2cc3ccccc3cc2C(=O)N[C@@H](CC(N)=O)C(=O)N1	5.42
CC(C)(C)NC(=O)[C@@H]1CCCN1C(=O)[C@@H](O)[C@@H]1Cc2ccc(cc2)OCCCOc2cc3ccccc3cc2C(=O)N[C@@H](CC(N)=O)C(=O)N1	7.72

Problem: Would you mind telling me what pIC50 value was observed for CC(C)(C)OC(=O)[C@@H]1CCCN1C[C@@H](O)[C@H](Cc1ccccc1)NC(=O)[C@H](CC(N)=O)NC(=O)c1ccc2ccccc2n1 ?
Solution: 7.64
